This listing pairs compounds with measured IRF reporter.
Test system: RAW-Dual (murine macrophage reporter line)
Assay: IRF reporter (Lucia luciferase) activity fold change vs agonist alone; higher = enhanced IRF activity
Conditions: modulator concentration 10 µM; agonist: MPLA […]

- compound: "O=C(C1=C(O)C(=O)N(c2nccs2)C1c1ccccc1)c1cc2ccccc2o1 (stereo not drawn)"
  assay target: "RAW-Dual (murine macrophage reporter line)"
  IRF reporter: 0.885
- compound: "CC(=O)N1CC(C(=O)Nc2cccc(Br)c2)C1"
  assay target: "RAW-Dual (murine macrophage reporter line)"
  IRF reporter: 0.971
- compound: "COC(=O)C1=C(C)NC(=O)CC1c1cc([N+](=O)[O-])ccc1Cl (stereo not drawn)"
  assay target: "RAW-Dual (murine macrophage reporter line)"
  IRF reporter: 0.994
- compound: "OC(c1cc(C(F)(F)F)nc2c(C(F)(F)F)cccc12)C1CCCCN1 (stereo not drawn)"
  assay target: "RAW-Dual (murine macrophage reporter line)"
  IRF reporter: 1.75
- compound: "Cc1cc(C)c(-c2csc(NC(=O)C=Cc3cccs3)n2)c(C)c1"
  assay target: "RAW-Dual (murine macrophage reporter line)"
  IRF reporter: 1.89
- compound: "Cc1n[nH]c(C)c1CCC(=O)NC1CCC(F)(F)CC1"
  assay target: "RAW-Dual (murine macrophage reporter line)"
  IRF reporter: 1.03
- compound: "Cc1ccc2nc(NC(=O)CSc3nc4c(c(=O)n3-c3ccccc3)SCC4)sc2c1"
  assay target: "RAW-Dual (murine macrophage reporter line)"
  IRF reporter: 1.27
- compound: "COc1cccc2c1C(=O)c1c(O)c3c(c(O)c1C2=O)C[C@@](O)(C(C)=O)C[C@@H]3O[C@H]1C[C@H](N)[C@H](O)[C@H](C)O1"
  assay target: "RAW-Dual (murine macrophage reporter line)"
  IRF reporter: 0.0245
- compound: "CC(NC(=O)C(=O)Nc1ccc(F)cc1)c1ccccc1 (stereo not drawn)"
  assay target: "RAW-Dual (murine macrophage reporter line)"
  IRF reporter: 1.28
- compound: "CCC(=O)c1ccc(N2CCCCCC2)c(F)c1"
  assay target: "RAW-Dual (murine macrophage reporter line)"
  IRF reporter: 2.1
- compound: "COc1ccccc1C(=O)Nc1ccc(-c2nc3cc(C)ccc3o2)cc1"
  assay target: "RAW-Dual (murine macrophage reporter line)"
  IRF reporter: 1.62
- compound: "Cc1ccc(C(=O)N2N=C(c3ccc(Cl)cc3)CC2(O)C(F)(F)F)o1 (stereo not drawn)"
  assay target: "RAW-Dual (murine macrophage reporter line)"
  IRF reporter: 1.42
- compound: "CCOC(=O)C1=C(C)NC(=S)NC1c1ccccc1OCc1ccccc1 (stereo not drawn)"
  assay target: "RAW-Dual (murine macrophage reporter line)"
  IRF reporter: 1.03
- compound: "COC(=O)N[C@H](C(=O)N[C@@H](Cc1ccccc1)[C@@H](O)CN(Cc1ccc(-c2ccccn2)cc1)NC(=O)[C@@H](NC(=O)OC)C(C)(C)C)C(C)(C)C.O=S(=O)(O)O"
  assay target: "RAW-Dual (murine macrophage reporter line)"
  IRF reporter: 1.14
- compound: "CC1CC(C)CN(C(=O)CSc2nnc(Cc3ccccc3)o2)C1 (stereo not drawn)"
  assay target: "RAW-Dual (murine macrophage reporter line)"
  IRF reporter: 0.858
- compound: "NS(=O)(=O)c1ccc2c(c1)C1C=CCC1C(C(=O)O)N2 (stereo not drawn)"
  assay target: "RAW-Dual (murine macrophage reporter line)"
  IRF reporter: 1.01
- compound: "CC(NC(=O)C1CCN(S(=O)(=O)N2CCCC2)CC1)c1ccc(F)cc1 (stereo not drawn)"
  assay target: "RAW-Dual (murine macrophage reporter line)"
  IRF reporter: 1.09
- compound: "CC(C(=O)O)c1ccc2c(c1)CC(=O)c1ccccc1S2 (stereo not drawn)"
  assay target: "RAW-Dual (murine macrophage reporter line)"
  IRF reporter: 1.22

----------
System: RAW-Dual (murine macrophage reporter line)
Test: NF-kB reporter (SEAP) activity fold change vs agonist alone; higher = enhanced NF-kB activity
Conditions: modulator concentration 10 µM; agonist: LPS 0.1 ug/mL
Returns Met if the recorded NF-kB reporter is greater than or equal to 1, and Not met otherwise.

- molecule: "CC1(C)CC(=O)C2=C(C1)OC(N)=C(C#N)C2C1CCCCC1 (stereo not drawn)"
  assigned label: "Not met"
- molecule: "Cc1ccc(-c2cc(C(F)(F)F)n3nc(C(=O)NCCCN4CCOCC4)cc3n2)cc1"
  assigned label: "Met"
- molecule: "CC(C)N(C(=O)c1ccc(C(=O)NCc2ccc(S(N)(=O)=O)cc2)cc1)C(C)C"
  assigned label: "Met"
- molecule: "Cc1ccc(NC(Nc2ccc(C)cc2)=C(C(Cl)=C(Cl)Cl)[N+](=O)[O-])cc1"
  assigned label: "Not met"
- molecule: "CNC(=O)c1ccc2cc(C3(O)CCn4cncc43)ccc2c1 (stereo not drawn)"
  assigned label: "Not met"
- molecule: "Cc1c(OCC(=O)OC(C)C)ccc2c3c(c(=O)oc12)CCCC3"
  assigned label: "Not met"
- molecule: "COc1ccc(OC2CCN(C(=O)C3CCOC3)C2)nn1 (stereo not drawn)"
  assigned label: "Met"
- molecule: "CC12CCC(=O)C=C1C=CC1C2CCC2(C)C1CCC21CCC(=O)O1 (stereo not drawn)"
  assigned label: "Not met"
- molecule: "COc1cc(NC(=O)COc2ccc(C(C)C)c(C)c2)c(OC)cc1Cl"
  assigned label: "Met"
- molecule: "C1CCC(N2NC2C2NN2C2CCCCC2)CC1 (stereo not drawn)"
  assigned label: "Met"
- molecule: "CCOc1ccccc1OCCOCCOc1ccc(Br)cc1Cl"
  assigned label: "Not met"
- molecule: "COC(C(=O)NNC(=O)c1ccccc1Cl)c1ccccc1 (stereo not drawn)"
  assigned label: "Met"
- molecule: "COc1ccc(CCNC2CC(=O)N(C)C2=O)cc1OC (stereo not drawn)"
  assigned label: "Met"
- molecule: "COC(=O)C1C(c2ccccc2)C(C(=O)Oc2ccc(C(C)=O)cc2)C1c1ccccc1 (stereo not drawn)"
  assigned label: "Not met"
- molecule: "COc1cc(C(=O)NCCCCc2ccccc2)cc(OC)c1OC"
  assigned label: "Met"

----------
System: RAW-Dual (murine macrophage reporter line)
Experiment: viability score (confluency relative to resting cells, overnight) (fraction); higher = more viable, active = viable (0.7 or more)
Conditions: modulator concentration 10 µM
This listing pairs molecules with measured viability score.

- molecule: "COc1ccc(-c2nc3c4cnn(-c5ccc(C)cc5C)c4ncn3n2)c(O)c1"
  viability score: 1
- molecule: "CC1=C(C(N)=O)C(c2cccs2)NC(=O)N1 (stereo unspecified)"
  viability score: 0.999
- molecule: "Cn1ccnc1Sc1nc(Nc2cccc(Cl)c2)nc(N2CCOCC2)n1"
  viability score: 1.01
- molecule: "COc1ccc(NC(=O)CN2C(=O)c3ccccc3C2=O)c([N+](=O)[O-])c1"
  viability score: 1.01
- molecule: "COc1ccccc1-c1cc(-c2ccccc2)nc(SCC(=O)c2cc3ccccc3oc2=O)c1C#N"
  viability score: 1
- molecule: "CC1(C)OC(=O)C=CC2(C)C1CC(O)C1(C)C2CCC2(C)C(c3ccoc3)OC(=O)C3OC321 (stereo unspecified)"
  viability score: 0.99
- molecule: "O=C1SC(=Cc2ccc([N+](=O)[O-])cc2)C(=O)N1Cc1ccccc1"
  viability score: 1
- molecule: "CCCc1nc(-c2ccccc2)c(-c2ccc(OC)c(OC)c2)c(=O)[nH]1"
  viability score: 1.01
- molecule: "Clc1ccc2nsnc2c1NC1=NCCN1"
  viability score: 0.995
- molecule: "O=S(=O)(Nc1nc2ccccc2nc1Nc1ccc2c(c1)OCCO2)c1cccs1"
  viability score: 0.99
- molecule: "O=C(O)CCc1nc(-c2ccccc2)c(-c2ccccc2)o1"
  viability score: 0.991
- molecule: "Cc1cncc(CN2CCC(=C3c4ccc(Cl)cc4CCc4cccnc43)CC2)c1.O=C(O)/C=C/C(=O)O"
  viability score: 1
- molecule: "C=CCN1C(=O)C(C)(C)COc2cc(NC(=O)c3ccc(Br)o3)ccc21"
  viability score: 0.994
- molecule: "O=C(O)c1ccccc1"
  viability score: 0.998
- molecule: "CC(C)c1nc(CN(C)C(=O)N[C@@H](CCN2CCOCC2)C(=O)N[C@H](CC[C@H](Cc2ccccc2)NC(=O)OCc2cncs2)Cc2ccccc2)cs1"
  viability score: 1
- molecule: "CCCC(CCC)C(N)=O"
  viability score: 0.996

----------
System: RAW-Dual (murine macrophage reporter line)
Assay: IRF reporter (Lucia luciferase) activity fold change vs agonist alone; higher = enhanced IRF activity
Details: modulator concentration 10 µM; agonist: 3'3'-cGAMP 10 ug/mL
assay metric: IRF reporter

- compound: "CC(=O)c1ccc(Nc2ncnc(Nc3ccc(C(C)=O)cc3)c2[N+](=O)[O-])cc1"
  experimental value: 1.01
- compound: "Oc1ccc(OCc2ccccc2)cc1"
  experimental value: 0.665
- compound: "CC1Cc2ccccc2N1C(=O)c1cc2n(n1)CCCO2 (stereo not drawn)"
  experimental value: 0.903
- compound: "CN1CCC2(CC1)NC(=O)N(CC(=O)N1CCc3ccccc31)C2=O"
  experimental value: 1.01
- compound: "O=c1ccc2cc(O)c(O)cc2o1"
  experimental value: 0.736
- compound: "Oc1ccccc1C=NNc1nc(-c2ccccc2)cc(-c2ccccc2)n1"
  experimental value: 1.19
- compound: "Cc1cccc(NC(=O)C(=Cc2ccco2)NC(=O)c2ccccc2I)c1"
  experimental value: 0.953
- compound: "COCCNCCOc1ccccc1C(C)C"
  experimental value: 0.895
